The molecules listed here are annotated with their IC50.
test system: A549; assay: Cytotoxicity against human A549 cells assessed as cell viability by MTT assay; format: functional, cell-based

Use these answered entries as a reference point.
Please give the measured IC50 for this molecule: CCOC(=O)C(C)Oc1cc(O)c2c(=O)c(OC(C)C(=O)OCC)c(-c3ccc(OC)cc3)oc2c1CC=C(C)C (single isomer, unassigned; diastereomer 2)
> 100 µM

Do the same for COc1ccc(-c2oc3c(CC=C(C)C)c(O)cc(O)c3c(=O)c2OC(C)C(=O)O)cc1 (racemic) please
40.7 µM

Follow-up item: COc1ccc(-c2oc3c(CC=C(C)C)c(O)cc(O)c3c(=O)c2OC(C(=O)O)C(=O)O)cc1
> 100 µM

Moving on to CCOC(=O)CCCOc1cc(O)c2c(=O)c(OCCCC(=O)OCC)c(-c3ccc(OC)cc3)oc2c1CC=C(C)C
> 100 µM

Another molecule to look at: CCOC(=O)CCCOc1cc(O)c2c(=O)c(O)c(-c3ccc(OC)cc3)oc2c1CC=C(C)C
> 100 µM

Thanks! And COc1ccc(-c2oc3c(CC=C(C)C)c(OCCCOC(=O)CCCC(=O)O)cc(O)c3c(=O)c2OCCCOC(=O)CCCC(=O)O)cc1 ?
14.3 µM

Do the same for CC/C(=C(\c1ccccc1)c1ccc(OCCN(C)C)cc1)c1ccccc1 please
8.4 µM

Try the molecule COc1ccc(-c2oc3c(CC=C(C)C)c(OCC(=O)O)cc(O)c3c(=O)c2OCC(=O)O)cc1
> 100 µM

Others:
Please report the recorded IC50 for CCOC(=O)/C=C/COc1cc(O)c2c(=O)c(O)c(-c3ccc(OC)cc3)oc2c1CC=C(C)C .
> 100 µM

Next molecule up: COc1ccc(-c2oc3c(CC=C(C)C)c(OCCOC(=O)CCC(=O)O)cc(O)c3c(=O)c2OCCOC(=O)CCC(=O)O)cc1
> 100 µM

Now the same for COc1ccc(-c2oc3c(CC=C(C)C)c(OC(C)C(=O)O)cc(O)c3c(=O)c2OC(C)C(=O)O)cc1 (stereo in doubt; 3c)
> 100 µM

* * *

system: Vero; assay: Cytotoxicity against African green monkey Vero cells assessed as cell viability by MTT assay; type: cell-based; conditions: Chlorocebus sabaeus
pIC50: −log10 of the molar value.
Is pIC50 at least 5? Then criterion met. If not, criterion not met.

Is the recorded value of pIC50 equal to or greater than 5 for this compound? CCOC(=O)/C=C/COc1c(-c2ccc(OC)cc2)oc2c(CC=C(C)C)c(O)cc(O)c2c1=O
criterion met

What would you report for COc1ccc(-c2oc3c(CC=C(C)C)c(OCCCOC(=O)CCC(=O)O)cc(O)c3c(=O)c2OCCCOC(=O)CCC(=O)O)cc1 ?
criterion not met

Now the compound COc1ccc(-c2oc3c(CC=C(C)C)c(O)cc(O)c3c(=O)c2OCCCC(=O)O)cc1
criterion not met

Okay, and COc1ccc(-c2oc3c(CC=C(C)C)c(O)cc(O)c3c(=O)c2OC/C=C/C(=O)O)cc1 ?
criterion met

Now this one: CCOC(=O)COc1cc(O)c2c(=O)c(O)c(-c3ccc(OC)cc3)oc2c1CC=C(C)C
criterion met

Further cases:
I'd appreciate it if you could say whether CC/C(=C(\c1ccccc1)c1ccc(OCCN(C)C)cc1)c1ccccc1 has pIC50 at least equal to 5.
criterion met

Would you mind doing COc1ccc(-c2oc3c(CC=C(C)C)c(OCCOC(=O)CCCC(=O)O)cc(O)c3c(=O)c2OCCOC(=O)CCCC(=O)O)cc1 as well?
criterion not met

Lookup CCOC(=O)C(Oc1c(-c2ccc(OC)cc2)oc2c(CC=C(C)C)c(O)cc(O)c2c1=O)C(=O)OCC
criterion met

Try this compound too: COc1ccc(-c2oc3c(CC=C(C)C)c(OC(C)C(=O)O)cc(O)c3c(=O)c2O)cc1 (racemic)
criterion not met

Now the same for CCOC(=O)CCCOc1c(-c2ccc(OC)cc2)oc2c(CC=C(C)C)c(O)cc(O)c2c1=O
criterion met

Now give it for CCOC(=O)C(C)Oc1c(-c2ccc(OC)cc2)oc2c(CC=C(C)C)c(O)cc(O)c2c1=O (racemic) too.
criterion met

* * *

tested on: A549; test: Cytotoxicity against human A549 cells assessed as cell viability by MTT assay; format: functional, cell-based
valueKind: IC50 (µM)
The reply should contain only the number, in µM.

Reference set (3 entries):
Please look up its IC50: COc1ccc(-c2oc3c(CC=C(C)C)c(OC/C=C/C(=O)O)cc(O)c3c(=O)c2O)cc1
22.9

// query: COc1ccc(-c2oc3c(CC=C(C)C)c(OCCOC(=O)CCCC(=O)O)cc(O)c3c(=O)c2OCCOC(=O)CCCC(=O)O)cc1
6.1

Now the molecule CCOC(=O)CCCOc1c(-c2ccc(OC)cc2)oc2c(CC=C(C)C)c(O)cc(O)c2c1=O
11

Further cases:
State the recorded IC50 for this entry: COc1ccc(-c2oc3c(CC=C(C)C)c(OC(C)C(=O)O)cc(O)c3c(=O)c2O)cc1 (racemic)
15.3

Okay, and CCOC(=O)/C=C/COc1c(-c2ccc(OC)cc2)oc2c(CC=C(C)C)c(O)cc(O)c2c1=O ?
4.7

Check COc1ccc(-c2oc3c(CC=C(C)C)c(OCCCOC(=O)CCC(=O)O)cc(O)c3c(=O)c2OCCCOC(=O)CCC(=O)O)cc1 too.
18.4

Repeat with COc1ccc(-c2oc3c(CC=C(C)C)c(O)cc(O)c3c(=O)c2OCC(=O)O)cc1
43.4

* * *

Below, each entry is listed alongside its reported IC50.
test system: A549; assay: Cytotoxicity against human A549 cells assessed as cell viability by MTT assay; type: functional, cell-based

Some entries whose results are on file:
Entry COc1ccc(-c2oc3c(CC=C(C)C)c(OCCO)cc(O)c3c(=O)c2OCCO)cc1 has what IC50?
> 100 µM

For COc1ccc(-c2oc3c(CC=C(C)C)c(O)cc(O)c3c(=O)c2O)cc1 then?
> 100 µM

Consider the additional compound presented here.
Name the reported IC50 value associated with the compound CCOC(=O)COc1c(-c2ccc(OC)cc2)oc2c(CC=C(C)C)c(O)cc(O)c2c1=O
65.2 µM

* * *

test: Chemical stability of the compound in phosphate buffered saline assessed as decomposition at pH 7; format: physicochemical; settings: read-out: Drug degradation
Recorded degraded values for a group of compounds are listed next.
Express the result in % but write the number alone.

Here's what some known entries look like.
Need degraded of CCOC(=O)C(C)Oc1c(-c2ccc(OC)cc2)oc2c(CC=C(C)C)c(O)cc(O)c2c1=O (racemic) , thanks.
7

Now the compound COc1ccc(-c2oc3c(CC=C(C)C)c(OCCCOC(=O)CCCC(=O)O)cc(O)c3c(=O)c2OCCCOC(=O)CCCC(=O)O)cc1
7

Next compound up: CCOC(=O)C(C)Oc1cc(O)c2c(=O)c(O)c(-c3ccc(OC)cc3)oc2c1CC=C(C)C (racemic)
25

Next compound, please.
What measured degraded goes with COc1ccc(-c2oc3c(CC=C(C)C)c(OCCOC(=O)CCCC(=O)O)cc(O)c3c(=O)c2OCCOC(=O)CCCC(=O)O)cc1 ?
7

* * *

Known IC50 of a selection of compounds
test system: A549; test: Cytotoxicity against human A549 cells assessed as cell viability by MTT assay; assay type: functional, cell-based
Numbers only here, please. The scale is µM.

Need IC50 of COc1ccc(-c2oc3c(CC=C(C)C)c(O)cc(O)c3c(=O)c2OCCCC(=O)O)cc1 , thanks.
23.9

Field entry: COc1ccc(-c2oc3c(CC=C(C)C)c(OCC(=O)O)cc(O)c3c(=O)c2O)cc1
16.7

Please find the next compound below.
IC50 for CCOC(=O)C(C)Oc1cc(O)c2c(=O)c(O)c(-c3ccc(OC)cc3)oc2c1CC=C(C)C (racemic) ?
26.5

* * *

compounds and their reported IC50
tested on: Vero; assay: Cytotoxicity against African green monkey Vero cells assessed as cell viability by MTT assay; format: cell-based; conditions: Chlorocebus sabaeus
Report as a plain number; the unit µM is understood.

Study these solved cases before continuing.
IC50 lookup needed for COc1ccc(-c2oc3c(CC=C(C)C)c(O)cc(O)c3c(=O)c2OC(C)C(=O)O)cc1 (racemic) , thanks.
36.6

Try COc1ccc(-c2oc3c(CC=C(C)C)c(OCCCOC(=O)CCCC(=O)O)cc(O)c3c(=O)c2OCCCOC(=O)CCCC(=O)O)cc1 next.
6.3

And COc1ccc(-c2oc3c(CC=C(C)C)c(O)cc(O)c3c(=O)c2O)cc1 [ICARITIN] ?
21.6

More entries:
Would you kindly share the measured IC50 for CCOC(=O)C(C)Oc1cc(O)c2c(=O)c(O)c(-c3ccc(OC)cc3)oc2c1CC=C(C)C (racemic) ?
1.4

* * *

tested on: A549; experiment: Cytotoxicity against human A549 cells assessed as cell viability by MTT assay; type: functional, cell-based
# label = true if IC50 < 20 µM else false

// known answers, use as guide
API: query returns whether the compound falls strictly under 20 µM in IC50. Query: COc1ccc(-c2oc3c(CC=C(C)C)c(OC/C=C/C(=O)O)cc(O)c3c(=O)c2OC/C=C/C(=O)O)cc1
false

Likewise for CCOC(=O)COc1cc(O)c2c(=O)c(O)c(-c3ccc(OC)cc3)oc2c1CC=C(C)C ?
false

What about CCOC(=O)/C=C/COc1cc(O)c2c(=O)c(OC/C=C/C(=O)OCC)c(-c3ccc(OC)cc3)oc2c1CC=C(C)C ?
false

# repeat for COc1ccc(-c2oc3c(CC=C(C)C)c(OCCCO)cc(O)c3c(=O)c2OCCCO)cc1
false

Further cases:
Would you kindly verify if IC50 of CCOC(=O)C(C)Oc1c(-c2ccc(OC)cc2)oc2c(CC=C(C)C)c(O)cc(O)c2c1=O (racemic) is strictly less than 20 µM?
true

Same again, this time with CCOC(=O)C(Oc1c(-c2ccc(OC)cc2)oc2c(CC=C(C)C)c(O)cc(O)c2c1=O)C(=O)OCC
true

// next record COc1ccc(-c2oc3c(CC=C(C)C)c(OCCCC(=O)O)cc(O)c3c(=O)c2OCCCC(=O)O)cc1
false

Request: COc1ccc(-c2oc3c(CC=C(C)C)c(OCCCC(=O)O)cc(O)c3c(=O)c2O)cc1
true

Consider next the compound COc1ccc(-c2oc3c(CC=C(C)C)c(OC(C(=O)O)C(=O)O)cc(O)c3c(=O)c2OC(C(=O)O)C(=O)O)cc1 in the same way.
false

Now this one: COc1ccc(-c2oc3c(CC=C(C)C)c(O)cc(O)c3c(=O)c2OC/C=C/C(=O)O)cc1
true
